Sourced from patent US11034672B1

biological target: HER2 WT (Homo sapiens); assay: Activity for inhibiting HER2 (Table B), HER2 WT; assay type: cell-based; settings: Table B; read-out: HER2 WT, potency code (IC50)
Sequence (P04626 23-1255): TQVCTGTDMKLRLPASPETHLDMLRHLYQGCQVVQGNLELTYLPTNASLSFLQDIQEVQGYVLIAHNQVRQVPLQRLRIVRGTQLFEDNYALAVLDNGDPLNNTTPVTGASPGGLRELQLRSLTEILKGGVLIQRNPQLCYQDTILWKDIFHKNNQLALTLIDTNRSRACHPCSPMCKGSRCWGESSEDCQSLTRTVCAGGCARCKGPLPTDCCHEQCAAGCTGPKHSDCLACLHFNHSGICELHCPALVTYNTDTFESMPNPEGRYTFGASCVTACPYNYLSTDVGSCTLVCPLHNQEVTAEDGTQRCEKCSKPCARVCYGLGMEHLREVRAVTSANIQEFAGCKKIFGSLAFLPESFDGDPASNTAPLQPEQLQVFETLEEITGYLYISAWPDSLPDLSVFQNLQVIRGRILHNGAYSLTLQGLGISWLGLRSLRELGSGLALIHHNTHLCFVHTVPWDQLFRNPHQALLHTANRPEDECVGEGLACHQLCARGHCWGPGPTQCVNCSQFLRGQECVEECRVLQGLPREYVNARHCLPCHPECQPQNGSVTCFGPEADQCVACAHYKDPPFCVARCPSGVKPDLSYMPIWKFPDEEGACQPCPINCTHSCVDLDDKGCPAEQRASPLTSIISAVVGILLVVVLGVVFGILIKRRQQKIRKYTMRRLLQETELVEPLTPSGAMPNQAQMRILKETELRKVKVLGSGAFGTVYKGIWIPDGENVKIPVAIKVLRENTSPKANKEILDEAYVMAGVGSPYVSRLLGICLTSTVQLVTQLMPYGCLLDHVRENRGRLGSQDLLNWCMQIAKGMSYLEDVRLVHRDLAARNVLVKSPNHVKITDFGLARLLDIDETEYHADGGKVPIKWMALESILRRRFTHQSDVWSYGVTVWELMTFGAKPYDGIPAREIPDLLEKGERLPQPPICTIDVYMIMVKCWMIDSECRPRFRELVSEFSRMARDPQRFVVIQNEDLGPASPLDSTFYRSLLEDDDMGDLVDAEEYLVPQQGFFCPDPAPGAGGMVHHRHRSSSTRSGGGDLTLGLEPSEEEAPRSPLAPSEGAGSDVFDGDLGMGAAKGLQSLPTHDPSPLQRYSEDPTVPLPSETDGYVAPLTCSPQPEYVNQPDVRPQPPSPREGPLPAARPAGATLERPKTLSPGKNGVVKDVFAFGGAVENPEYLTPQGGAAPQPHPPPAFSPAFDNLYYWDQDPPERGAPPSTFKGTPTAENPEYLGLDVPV
pIC50: −log10 of the molar value.
Measured Attribute: pIC50

{"columns": ["Compound", "Value"],
 "data": [
  ["C=CC(=O)Nc1cc2c(Nc3ccc(OCc4ccccn4)c(Cl)c3)ncnc2cc1OCCn1ccnc1", "7.70 to 8.00"],
  ["C=CC(=O)Nc1cc2c(Nc3cc(Cl)c(OCc4ccccn4)cc3F)ncnc2cc1OCCN1CCOCC1", "8.00 to 8.30"],
  ["C=CC(=O)Nc1cc2c(Nc3ccc(OCc4ccccn4)c(Cl)c3)ncnc2cc1OCCCN1CCOCC1", "> 8.30"],
  ["C=CC(=O)Nc1cc2c(Nc3ccc(OCc4ccccn4)c(Cl)c3)ncnc2cc1OCCN1C2CCC1COC2", "8.00 to 8.30"],
  ["C=CC(=O)Nc1cc2c(Nc3ccc(OCc4ccccn4)c(Cl)c3)ncnc2cc1OCCN1CCC1", "8.00 to 8.30"],
  ["C=CC(=O)Nc1cc2c(Nc3ccc(OCc4ccccn4)c(Cl)c3)ncnc2cc1O[C@@H]1CCN(C)C1", "> 8.30"],
  ["CC#CC(=O)Nc1cc2c(Nc3ccc(OCc4ccccn4)c(Cl)c3)ncnc2cc1OC1CCN(C)C1 (stereo not shown)", "8.00 to 8.30"]
]}
